testedSystem: MERTK (human)
protocolNotes: radiometric filter-binding kinase assay, Kinase HotSpot
reportedConditions: compound 0.5 µM; ATP 10 µM
measure: residual activity (%)
Unit % implied. Number only.

Short answer on MERTK (human) for "CC(C)[C@H](CO)Nc1nc(Nc2cccc(Cl)c2)c2ncn(C(C)C)c2n1" , residual activity: 84.7

Short answer on MERTK (human) for "Cc1cc2ncc(-c3ccccc3)nc2cc1C" , residual activity: 81.4

Short answer on MERTK (human) for CS(=O)c1ccc(-c2nc(-c3ccc(F)cc3)c(-c3ccncc3)[nH]2)cc1 (stereo unspecified) , residual activity: 93.9

Short answer on MERTK (human) for "O=C(Nc1ccc(Cl)cc1)c1ccccc1NCc1ccncc1" , residual activity: 79

Short answer on MERTK (human) for "CC(C)n1cnc2c(Nc3cccc(Cl)c3)nc(NCCO)nc21" , residual activity: 89.7

Short answer on MERTK (human) for "COc1cc2nccc(Oc3ccc(NC(=S)NC(=O)c4ccccc4C)cc3)c2cc1OC" , residual activity: 32.3

Short answer on MERTK (human) for "O=c1cc(N2CCNCC2)oc2c(-c3ccccc3)cccc12" , residual activity: 98.3

Short answer on MERTK (human) for "CCN1/C(=C/C(C)=O)Sc2ccc(OC)cc21" , residual activity: 88.6

Short answer on MERTK (human) for O=C(NC(NC(=S)Nc1ccc(F)c([N+](=O)[O-])c1)C(Cl)(Cl)Cl)C(c1ccccc1)c1ccccc1 (stereo unspecified) , residual activity: 96.2

Short answer on MERTK (human) for CSc1nc(-c2ccc(F)cc2)c(-c2ccnc(NC(C)c3ccccc3)c2)[nH]1 (stereo unspecified) , residual activity: 93.1

Short answer on MERTK (human) for "Nc1nc(Nc2ccc(S(N)(=O)=O)cc2)nn1C(=O)c1c(F)cccc1F" , residual activity: 70.2

###

Each entry below carries its recorded residual activity.
testedSystem: IKBKB (human)
protocolNotes: radiometric filter-binding kinase assay, Kinase HotSpot
reportedConditions: compound 0.5 µM; ATP 10 µM
Unit % implied. Number only.

The examples below pair each entry with its known result.
smilesStr: COc1cc2ncnc(Nc3ccc(F)c(Cl)c3)c2cc1OCCCN1CCOCC1
testedSystem: IKBKB (human)
reported: 86.5

smilesStr: Cc1ccc(NC(=O)c2ccc(CN3CCN(C)CC3)cc2)cc1Nc1nc(-c2cccnc2)cs1
testedSystem: IKBKB (human)
reported: 97.8

smilesStr: NC(=O)c1ccc(N(C(N)=O)c2c(F)cccc2F)nc1-c1ccc(F)cc1F
testedSystem: IKBKB (human)
reported: 94.8

smilesStr: O=c1cc(N2CCNCC2)oc2c(-c3ccccc3)cccc12
testedSystem: IKBKB (human)
reported: 103

molecule "O=C(Nc1ccc(Cl)cc1)c1ccccc1NCc1ccncc1" , residual activity observed: 99.3

molecule "Clc1ccc(Nc2nnc(Cc3ccncc3)c3ccccc23)cc1" , residual activity observed: 85.6

###

testedSystem: EPHA5 (human) (UniProt P54756)
Sequence (P54756 whole entry, looked up): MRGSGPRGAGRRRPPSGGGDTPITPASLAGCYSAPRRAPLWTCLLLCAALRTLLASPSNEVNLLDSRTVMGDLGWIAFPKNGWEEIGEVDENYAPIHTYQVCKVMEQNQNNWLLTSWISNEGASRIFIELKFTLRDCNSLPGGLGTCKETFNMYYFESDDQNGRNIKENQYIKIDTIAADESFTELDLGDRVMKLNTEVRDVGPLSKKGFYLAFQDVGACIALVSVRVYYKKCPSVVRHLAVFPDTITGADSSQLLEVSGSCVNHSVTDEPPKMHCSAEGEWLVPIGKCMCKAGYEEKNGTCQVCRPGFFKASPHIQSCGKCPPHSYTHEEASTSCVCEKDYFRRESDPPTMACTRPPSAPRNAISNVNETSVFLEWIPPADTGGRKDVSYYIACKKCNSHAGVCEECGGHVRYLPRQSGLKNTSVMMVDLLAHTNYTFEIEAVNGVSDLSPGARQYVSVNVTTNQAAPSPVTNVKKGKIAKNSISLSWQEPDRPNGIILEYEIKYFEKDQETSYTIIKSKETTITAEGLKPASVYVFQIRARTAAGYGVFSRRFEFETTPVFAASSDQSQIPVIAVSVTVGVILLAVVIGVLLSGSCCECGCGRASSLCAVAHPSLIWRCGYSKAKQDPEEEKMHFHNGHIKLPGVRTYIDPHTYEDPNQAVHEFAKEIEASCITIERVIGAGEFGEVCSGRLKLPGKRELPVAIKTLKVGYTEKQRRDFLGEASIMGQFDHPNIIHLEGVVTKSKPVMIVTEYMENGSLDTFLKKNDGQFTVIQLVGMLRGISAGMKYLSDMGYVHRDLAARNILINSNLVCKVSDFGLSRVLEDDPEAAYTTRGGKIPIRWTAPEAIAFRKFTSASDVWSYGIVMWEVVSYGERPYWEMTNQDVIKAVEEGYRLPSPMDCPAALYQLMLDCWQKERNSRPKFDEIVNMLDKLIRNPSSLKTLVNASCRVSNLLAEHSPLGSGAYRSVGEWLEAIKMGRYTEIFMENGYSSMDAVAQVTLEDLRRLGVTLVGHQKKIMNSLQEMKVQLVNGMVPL
protocolNotes: radiometric filter-binding kinase assay, Kinase HotSpot
reportedConditions: compound 0.5 µM; ATP 10 µM
measure: residual activity (%)
Unit % implied. Number only.

smilesStr: O=c1cc(-c2cccc3c2Sc2ccccc2S3)oc(N2CCOCC2)c1
testedSystem: EPHA5 (human) (UniProt P54756)
reported: 114

Short answer on EPHA5 (human) (UniProt P54756) for "O=C1Nc2cc(Br)ccc2/C1=C1/Nc2ccccc2/C1=N\O" , residual activity: 70.4

Short answer on EPHA5 (human) (UniProt P54756) for "COc1cc2nccc(Oc3ccc(NC(=S)NC(=O)c4ccccc4C)cc3)c2cc1OC" , residual activity: 91

Short answer on EPHA5 (human) (UniProt P54756) for "CCCNC(=O)Nc1ccc(Oc2ncnc3cc(OC)c(OC)cc23)cc1Cl" , residual activity: 81.8

Short answer on EPHA5 (human) (UniProt P54756) for "O=C(Nc1ccc(Cl)cc1)c1ccccc1NCc1ccncc1" , residual activity: 82.1

Short answer on EPHA5 (human) (UniProt P54756) for "O=C1Cc2c([nH]c3ccc([N+](=O)[O-])cc23)-c2ccccc2N1" , residual activity: 98.6

Short answer on EPHA5 (human) (UniProt P54756) for "NC(=O)c1ccc(N(C(N)=O)c2c(F)cccc2F)nc1-c1ccc(F)cc1F" , residual activity: 105

Short answer on EPHA5 (human) (UniProt P54756) for "CCN1/C(=C/C(C)=O)Sc2ccc(OC)cc21" , residual activity: 97.8

Short answer on EPHA5 (human) (UniProt P54756) for "Clc1ccc(Nc2nnc(Cc3ccncc3)c3ccccc23)cc1" , residual activity: 109

Short answer on EPHA5 (human) (UniProt P54756) for "CC(C)(C)c1nc2c3ccc(F)cc3c3c(=O)[nH]ccc3c2[nH]1" , residual activity: 100

###

testedSystem: CDK9 CCNT1 (human) (UniProt P50750+O60563)
Sequence (O60563 whole entry, looked up): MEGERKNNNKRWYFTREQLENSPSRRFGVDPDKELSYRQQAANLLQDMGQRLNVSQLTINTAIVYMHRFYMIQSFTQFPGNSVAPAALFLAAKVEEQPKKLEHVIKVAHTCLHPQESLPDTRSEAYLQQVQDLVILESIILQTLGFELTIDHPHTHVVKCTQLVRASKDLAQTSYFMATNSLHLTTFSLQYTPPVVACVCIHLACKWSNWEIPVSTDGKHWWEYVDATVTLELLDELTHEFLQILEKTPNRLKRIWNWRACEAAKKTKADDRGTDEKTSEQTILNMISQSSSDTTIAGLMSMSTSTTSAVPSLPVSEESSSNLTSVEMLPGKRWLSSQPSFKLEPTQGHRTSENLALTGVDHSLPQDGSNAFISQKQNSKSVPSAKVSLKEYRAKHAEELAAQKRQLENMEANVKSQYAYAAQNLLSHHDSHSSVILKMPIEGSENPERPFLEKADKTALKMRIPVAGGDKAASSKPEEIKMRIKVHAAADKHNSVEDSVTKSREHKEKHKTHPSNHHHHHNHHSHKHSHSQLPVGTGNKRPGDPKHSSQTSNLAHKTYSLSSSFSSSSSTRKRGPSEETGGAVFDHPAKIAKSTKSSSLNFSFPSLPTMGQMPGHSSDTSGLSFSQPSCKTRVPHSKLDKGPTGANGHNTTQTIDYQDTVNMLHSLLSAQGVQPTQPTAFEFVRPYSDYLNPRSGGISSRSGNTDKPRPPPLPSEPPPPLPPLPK
Sequence (P50750 whole entry, looked up): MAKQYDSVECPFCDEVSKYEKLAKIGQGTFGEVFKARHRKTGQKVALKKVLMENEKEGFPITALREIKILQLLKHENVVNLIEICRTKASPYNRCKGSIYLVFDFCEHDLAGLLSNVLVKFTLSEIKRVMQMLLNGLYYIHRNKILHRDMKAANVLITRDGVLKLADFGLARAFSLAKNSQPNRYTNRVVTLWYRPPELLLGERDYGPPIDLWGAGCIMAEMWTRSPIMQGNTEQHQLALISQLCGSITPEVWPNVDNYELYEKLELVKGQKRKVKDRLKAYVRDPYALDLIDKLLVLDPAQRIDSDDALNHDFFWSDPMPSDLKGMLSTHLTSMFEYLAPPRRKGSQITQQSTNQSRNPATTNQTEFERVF
protocolNotes: radiometric filter-binding kinase assay, Kinase HotSpot
reportedConditions: compound 0.5 µM; ATP 10 µM
measure: residual activity (%)
Unit % implied. Number only.

The examples below pair each entry with its known result.
compound: O=C(Nc1ccc(Cl)cc1)c1ccccc1NCc1ccncc1
residual activity (%): 81.9
//
compound: Oc1ccc(-c2nc(-c3ccc(F)cc3)c(-c3ccncc3)[nH]2)cc1
residual activity (%): 83.4
//
compound: O=c1cc(-c2cccc3c2Sc2ccccc2S3)oc(N2CCOCC2)c1
residual activity (%): 100
//
compound: COc1cc2nccc(Oc3ccc(NC(=S)NC(=O)c4ccccc4C)cc3)c2cc1OC
residual activity (%): 104
//
compound: NC(=O)c1ccc(-c2nc(-c3ccccn3)c(-c3ccc4c(c3)OCCO4)[nH]2)cc1
residual activity (%): 96.8

Short answer on CDK9 CCNT1 (human) (UniProt P50750+O60563) for CS(=O)c1ccc(-c2nc(-c3ccc(F)cc3)c(-c3ccncc3)[nH]2)cc1 (stereo not given) , residual activity: 83.8

###

Each entry below carries its recorded residual activity.
testedSystem: PTK6 (human)
protocolNotes: radiometric filter-binding kinase assay, Kinase HotSpot
reportedConditions: compound 0.5 µM; ATP 10 µM
Unit % implied. Number only.

The examples below pair each entry with its known result.
compound: Cc1cc2ncc(-c3ccccc3)nc2cc1C
readingUnit: %
residual activity: 93.6

compound: Nc1nc(Nc2ccc(S(N)(=O)=O)cc2)nn1C(=S)Nc1c(F)cccc1F
readingUnit: %
residual activity: 34.8

compound: Cc1ccc(NC(=O)c2ccc(CN3CCN(C)CC3)cc2)cc1Nc1nc(-c2cccnc2)cs1
readingUnit: %
residual activity: 79.2

compound: CS(=O)c1ccc(-c2nc(-c3ccc(F)cc3)c(-c3ccncc3)[nH]2)cc1 (stereo not given)
readingUnit: %
residual activity: 54.2

compound: C#Cc1cccc(Nc2ncnc3cc(OCCOC)c(OCCOC)cc23)c1
readingUnit: %
residual activity: 85.9

compound: O=C1Nc2cc(Br)ccc2/C1=C1/Nc2ccccc2/C1=N\O
readingUnit: %
residual activity: 89.3

compound: NC(=O)c1ccc(N(C(N)=O)c2c(F)cccc2F)nc1-c1ccc(F)cc1F
readingUnit: %
residual activity: 98.7

compound: O=C(NC(NC(=S)Nc1ccc(F)c([N+](=O)[O-])c1)C(Cl)(Cl)Cl)C(c1ccccc1)c1ccccc1 (stereo not given)
readingUnit: %
residual activity: 87.8

compound "CC(C)[C@H](CO)Nc1nc(Nc2cccc(Cl)c2)c2ncn(C(C)C)c2n1" , residual activity observed: 89.2

compound "O=C1Nc2ccccc2/C1=C\c1c(Cl)[nH]c2ccccc12" , residual activity observed: 76.9

###

testedSystem: TAOK1 (human) (UniProt Q7L7X3)
Sequence (Q7L7X3 whole entry, looked up): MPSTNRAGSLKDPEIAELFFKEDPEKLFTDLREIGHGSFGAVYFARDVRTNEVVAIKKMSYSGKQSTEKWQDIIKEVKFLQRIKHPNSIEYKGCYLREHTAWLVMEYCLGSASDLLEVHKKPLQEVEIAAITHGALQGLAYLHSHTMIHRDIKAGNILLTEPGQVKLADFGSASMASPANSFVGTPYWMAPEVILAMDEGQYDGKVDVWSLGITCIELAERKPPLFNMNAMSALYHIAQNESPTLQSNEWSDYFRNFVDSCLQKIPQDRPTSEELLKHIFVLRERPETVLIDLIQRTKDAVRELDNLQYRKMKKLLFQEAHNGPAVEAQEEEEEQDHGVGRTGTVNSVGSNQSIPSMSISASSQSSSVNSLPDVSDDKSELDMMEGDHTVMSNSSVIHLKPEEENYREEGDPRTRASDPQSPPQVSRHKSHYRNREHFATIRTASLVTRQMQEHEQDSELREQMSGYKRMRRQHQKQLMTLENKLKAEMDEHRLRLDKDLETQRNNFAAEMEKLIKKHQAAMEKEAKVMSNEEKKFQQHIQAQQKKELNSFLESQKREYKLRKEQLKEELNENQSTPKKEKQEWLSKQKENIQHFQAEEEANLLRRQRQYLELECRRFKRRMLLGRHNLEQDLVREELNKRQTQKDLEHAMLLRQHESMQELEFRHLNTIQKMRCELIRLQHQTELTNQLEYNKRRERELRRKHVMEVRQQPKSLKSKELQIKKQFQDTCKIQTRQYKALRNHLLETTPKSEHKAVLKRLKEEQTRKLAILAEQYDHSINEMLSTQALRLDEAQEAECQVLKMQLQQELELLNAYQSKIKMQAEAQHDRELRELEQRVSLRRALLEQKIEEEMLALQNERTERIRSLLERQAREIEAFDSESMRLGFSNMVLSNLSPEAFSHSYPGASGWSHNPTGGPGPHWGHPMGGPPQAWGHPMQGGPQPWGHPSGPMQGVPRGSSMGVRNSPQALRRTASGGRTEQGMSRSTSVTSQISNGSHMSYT
protocolNotes: radiometric filter-binding kinase assay, Kinase HotSpot
reportedConditions: compound 0.5 µM; ATP 10 µM
measure: residual activity (%)
Unit % implied. Number only.

compound: O=C(Nc1ccc(Cl)cc1)c1ccccc1NCc1ccncc1
measure: residual activity
reported: 110
//
compound: O=C1Cc2c([nH]c3ccc([N+](=O)[O-])cc23)-c2ccccc2N1
measure: residual activity
reported: 66.9
//
compound: O=C1Nc2ccccc2/C1=C\c1c(Cl)[nH]c2ccccc12
measure: residual activity
reported: 100
//
compound: C#Cc1cccc(Nc2ncnc3cc(OCCOC)c(OCCOC)cc23)c1
measure: residual activity
reported: 98.3
//
compound: COc1cc2nccc(Oc3ccc(NC(=S)NC(=O)c4ccccc4C)cc3)c2cc1OC
measure: residual activity
reported: 71.3

compound "Nc1n[nH]c2nnc(-c3c(-c4ccccc4)nn4ccccc34)cc12" , residual activity observed: 95.8

compound "Clc1ccc(Nc2nnc(Cc3ccncc3)c3ccccc23)cc1" , residual activity observed: 98.7

###

testedSystem: MELK (human)
protocolNotes: radiometric filter-binding kinase assay, Kinase HotSpot
reportedConditions: compound 0.5 µM; ATP 10 µM
Label 1.0 for high-side residual activity (at or above 90%) and 0.0 for low-side residual activity (below it).

Solved cases (10 shown):
molecule: O=C1Nc2cc(Br)ccc2/C1=C1/Nc2ccccc2/C1=N\O
classLabel: 0.0
//
molecule: O=C1Nc2ccccc2/C1=C\c1c(Cl)[nH]c2ccccc12
classLabel: 0.0
//
molecule: Cc1ccc(NC(=O)c2ccc(CN3CCN(C)CC3)cc2)cc1Nc1nc(-c2cccnc2)cs1
classLabel: 0.0
//
molecule: Nc1n[nH]c2nnc(-c3c(-c4ccccc4)nn4ccccc34)cc12
classLabel: 1.0
//
molecule: Nc1nc(Nc2ccc(S(N)(=O)=O)cc2)nn1C(=O)c1c(F)cccc1F
classLabel: 0.0
//
molecule: Nc1nc(Nc2ccc(S(N)(=O)=O)cc2)nn1C(=S)Nc1c(F)cccc1F
classLabel: 0.0
//
molecule: CS(=O)c1ccc(-c2nc(-c3ccc(F)cc3)c(-c3ccncc3)[nH]2)cc1 (stereo not given)
classLabel: 1.0
//
molecule: Oc1ccc(-c2nc(-c3ccc(F)cc3)c(-c3ccncc3)[nH]2)cc1
classLabel: 1.0
//
molecule: COc1cc2nccc(Oc3ccc(NC(=S)NC(=O)c4ccccc4C)cc3)c2cc1OC
classLabel: 1.0
//
molecule: CCCNC(=O)Nc1ccc(Oc2ncnc3cc(OC)c(OC)cc23)cc1Cl
classLabel: 0.0

Threshold query (residual activity >= 90%) on "Clc1ccc(Nc2nnc(Cc3ccncc3)c3ccccc23)cc1"
0.0

Threshold query (residual activity >= 90%) on "COc1cc2ncnc(Nc3ccc(F)c(Cl)c3)c2cc1OCCCN1CCOCC1"
0.0

Threshold query (residual activity >= 90%) on "O=C1Cc2c([nH]c3ccc([N+](=O)[O-])cc23)-c2ccccc2N1"
0.0

Threshold query (residual activity >= 90%) on CSc1nc(-c2ccc(F)cc2)c(-c2ccnc(NC(C)c3ccccc3)c2)[nH]1 (stereo not given)
1.0

Origin of the recorded values: the kinase profiling compilation of Christmann-Franck et al. (2016)
